In what follows, each item is paired with its Ki for D(3) dopamine receptor (Homo sapiens, UniProt P35462).
metric: Ki (nM)

structure_as_smiles	Ki, nM
COc1ccccc1N1CCN(CCCc2cn(-c3ccccc3OC)nn2)CC1	93.1
COc1ccccc1N1CCN(CCCc2cn(-c3ccc(-c4ccsc4)cc3)nn2)CC1	8.9
COc1ccccc1N1CCN(CCCCCc2cn(-c3ccc(SC)cc3)nn2)CC1	2.3
COc1ccccc1N1CCN(CCCCCc2cn(-c3ccc(F)cc3)nn2)CC1	3.2
COc1ccccc1N1CCN(CCCCc2cn(-c3ccc(F)cc3)nn2)CC1	6.5

A = COc1ccccc1N1CCN(CCCCc2cn(-c3cccc4cnccc34)nn2)CC1
B = COc1ccccc1N1CCN(CCCc2cn(-c3ccc(F)cc3)nn2)CC1
I'm curious whether A or B has the smaller Ki number. Which is it? Write down the label of the entry you select. A
(A: 3.7 nM, B: 26.5 nM)

I = COc1ccccc1N1CCN(CCCCc2cn(-c3ccccc3)nn2)CC1
II = COc1ccccc1N1CCN(CCCCc2cn(-c3ccccc3OC)nn2)CC1
III = COc1ccccc1N1CCN(CCCCc2cn(-c3ccc(N(C)C)cc3)nn2)CC1
IV = COc1ccccc1N1CCN(CCCc2cn(-c3ccccc3O)nn2)CC1
V = COc1ccccc1N1CCN(CCCc2cn(-c3cccc4cnccc34)nn2)CC1
Reorder: Ki, max to min. Use the labels to give the requested order. V, II, III, IV, I
(V: 36.3 nM, II: 25.4 nM, III: 13.9 nM, IV: 6.8 nM, I: 4.7 nM)

* * *

- Species on record: Homo sapiens
- test_summary: Selectivity index, ratio of Ki for D4 receptor to Ki for human D3 receptor
metric: Ratio Ki

structure_as_smiles	numeric_result
COc1ccccc1N1CCN(CCCc2cn(-c3ccc(-c4ccsc4)cc3)nn2)CC1	10
COc1ccccc1N1CCN(CCCCc2cn(-c3ccc(N(C)C)cc3)nn2)CC1	55
COc1ccccc1N1CCN(CCCCNC(=O)c2ccc(N(C)C)cc2)CC1	1120
COc1ccccc1N1CCN(CCCCc2cn(-c3cccc4cnccc34)nn2)CC1	237
COc1ccccc1N1CCN(CCCCCc2cn(-c3ccc(-c4ccsc4)cc3)nn2)CC1	26

P = COc1ccccc1N1CCN(CCCCCc2cn(-c3ccc(SC)cc3)nn2)CC1
Q = COc1ccccc1N1CCN(CCCCc2cn(-c3ccc(-c4ccsc4)cc3)nn2)CC1
Smaller Ratio Ki value, P vs Q ? Please reply using the label of the selected record. Q
(Q: 48, P: 99)

* * *

- assayed_target: UniProt P08908
- Sequence (P08908 whole entry): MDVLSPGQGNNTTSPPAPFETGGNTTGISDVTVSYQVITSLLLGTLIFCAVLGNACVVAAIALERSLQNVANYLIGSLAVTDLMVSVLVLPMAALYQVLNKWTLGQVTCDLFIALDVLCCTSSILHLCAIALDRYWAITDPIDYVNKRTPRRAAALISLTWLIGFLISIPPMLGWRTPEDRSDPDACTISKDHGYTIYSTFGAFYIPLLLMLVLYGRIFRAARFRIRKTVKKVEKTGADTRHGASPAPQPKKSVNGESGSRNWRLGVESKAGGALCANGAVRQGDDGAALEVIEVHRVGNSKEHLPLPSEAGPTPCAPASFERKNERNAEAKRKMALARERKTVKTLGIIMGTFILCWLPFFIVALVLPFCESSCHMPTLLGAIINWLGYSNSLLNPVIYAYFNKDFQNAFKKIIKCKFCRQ
- test_summary: Displacement of [3H]8-OH-DPAT from human 5HT1A receptor after 60 mins by filtration binding assay
metric: Ki (nM)

structure_as_smiles	Ki, nM
COc1ccccc1N1CCN(CCCCCc2cn(-c3ccc(SC)cc3)nn2)CC1	3.9
COc1ccccc1N1CCN(CCCCc2cn(-c3ccc(-c4ccsc4)cc3)nn2)CC1	1.3
COc1ccccc1N1CCN(CCCCc2cn(-c3cccc4cnccc34)nn2)CC1	6
COc1ccccc1N1CCN(CCCCNC(=O)c2ccc(N(C)C)cc2)CC1	7.5

1 = COc1ccccc1N1CCN(CCCCCc2cn(-c3ccc(-c4ccsc4)cc3)nn2)CC1
2 = COc1ccccc1N1CCN(CCCCCc2cn(-c3cccc4cnccc34)nn2)CC1
Higher Ki: 1 or 2 ? Bench note: the answer is the label of the chosen record. 1

* * *

# Ki measurements, system: D(2) dopamine receptor (Homo sapiens)
# Sequence (P14416 whole entry): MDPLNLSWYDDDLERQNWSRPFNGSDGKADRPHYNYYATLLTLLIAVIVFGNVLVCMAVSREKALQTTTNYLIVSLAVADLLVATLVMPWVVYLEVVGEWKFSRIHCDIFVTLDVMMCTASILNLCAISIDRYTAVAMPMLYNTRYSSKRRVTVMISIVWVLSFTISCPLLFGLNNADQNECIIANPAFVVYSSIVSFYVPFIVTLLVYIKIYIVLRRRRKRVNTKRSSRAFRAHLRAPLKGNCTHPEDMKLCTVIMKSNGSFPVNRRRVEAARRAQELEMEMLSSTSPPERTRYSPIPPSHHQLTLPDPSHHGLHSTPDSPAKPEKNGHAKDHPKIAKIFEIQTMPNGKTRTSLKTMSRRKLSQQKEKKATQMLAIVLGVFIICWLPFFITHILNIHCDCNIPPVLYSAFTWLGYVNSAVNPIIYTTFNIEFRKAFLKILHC
metric: Ki (nM)

structure_as_smiles	assayed_target	metric	numeric_result
COc1ccccc1N1CCN(CCCCCc2cn(-c3ccc(F)cc3)nn2)CC1	D(2) dopamine receptor (Homo sapiens)	Ki	23.7
COc1ccccc1N1CCN(CCCc2cn(-c3ccccc3)nn2)CC1	D(2) dopamine receptor (Homo sapiens)	Ki	64
COc1ccccc1N1CCN(CCCCCc2cn(-c3ccccc3)nn2)CC1	D(2) dopamine receptor (Homo sapiens)	Ki	19.4
COc1ccccc1N1CCN(CCCCc2cn(-c3cccc4cnccc34)nn2)CC1	D(2) dopamine receptor (Homo sapiens)	Ki	42.3
COc1ccccc1N1CCN(CCCc2cn(-c3cccc4cnccc34)nn2)CC1	D(2) dopamine receptor (Homo sapiens)	Ki	79.3
COc1ccccc1N1CCN(CCCCc2cn(-c3ccc(N(C)C)cc3)nn2)CC1	D(2) dopamine receptor (Homo sapiens)	Ki	171
COc1ccccc1N1CCN(CCCc2cn(-c3ccccc3O)nn2)CC1	D(2) dopamine receptor (Homo sapiens)	Ki	12.8
COc1ccccc1N1CCN(CCCc2cn(-c3ccc(N(C)C)cc3)nn2)CC1	D(2) dopamine receptor (Homo sapiens)	Ki	162
COc1ccccc1N1CCN(CCCc2cn(-c3ccc(SC)cc3)nn2)CC1	D(2) dopamine receptor (Homo sapiens)	Ki	44.1
COc1ccccc1N1CCN(CCCCc2cn(-c3ccc(-c4ccsc4)cc3)nn2)CC1	D(2) dopamine receptor (Homo sapiens)	Ki	94.3

I = COc1ccccc1N1CCN(CCCc2cn(-c3ccc(-c4ccsc4)cc3)nn2)CC1
II = COc1ccccc1N1CCN(CCCc2cn(-c3ccc(F)cc3)nn2)CC1
III = COc1ccccc1N1CCN(CCCCc2cn(-c3ccccc3)nn2)CC1
IV = COc1ccccc1N1CCN(CCCCCc2cn(-c3cccc4cnccc34)nn2)CC1
V = COc1ccccc1N1CCN(CCCCc2cn(-c3ccc(F)cc3)nn2)CC1
Please list these in order of increasing Ki. Thank you! Dear reader, please state the labels in the requested order. IV, III, V, II, I

1 = COc1ccccc1N1CCN(CCCCCc2cn(-c3ccc(N(C)C)cc3)nn2)CC1
2 = COc1ccccc1N1CCN(CCCCc2cn(-c3ccccc3OC)nn2)CC1
Lab log: flag the item ( 1 or 2 ) with the smaller Ki figure. Give the chosen item's label as your response. 1
(1: 62.6 nM, 2: 139 nM)

* * *

- assayed_target: D(4) dopamine receptor (Homo sapiens)
- Sequence (P21917 whole entry): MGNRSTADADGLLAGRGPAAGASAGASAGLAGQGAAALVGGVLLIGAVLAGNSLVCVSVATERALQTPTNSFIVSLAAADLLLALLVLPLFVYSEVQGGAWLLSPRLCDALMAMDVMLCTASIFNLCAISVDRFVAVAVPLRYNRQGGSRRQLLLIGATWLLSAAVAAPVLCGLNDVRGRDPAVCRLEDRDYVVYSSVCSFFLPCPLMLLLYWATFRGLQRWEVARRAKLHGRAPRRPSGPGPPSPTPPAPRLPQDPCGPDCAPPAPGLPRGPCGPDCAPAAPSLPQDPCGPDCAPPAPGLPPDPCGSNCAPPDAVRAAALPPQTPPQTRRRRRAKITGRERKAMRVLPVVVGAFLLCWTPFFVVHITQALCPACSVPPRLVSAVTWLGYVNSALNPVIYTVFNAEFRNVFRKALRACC
pKi: −log10 of the molar value.
metric: pKi

1 = COc1ccccc1N1CCN(CCCCc2cn(-c3ccc(N(C)C)cc3)nn2)CC1
2 = COc1ccccc1N1CCN(CCCCc2cn(-c3ccc(SC)cc3)nn2)CC1
1 or 2 : whose pKi is greater? Answer by quoting the chosen item's label. 2
(2: 6.70, 1: 6.12)

* * *

- assayed_target: D(3) dopamine receptor (Homo sapiens, UniProt P35462)
- Sequence (P35462 whole entry): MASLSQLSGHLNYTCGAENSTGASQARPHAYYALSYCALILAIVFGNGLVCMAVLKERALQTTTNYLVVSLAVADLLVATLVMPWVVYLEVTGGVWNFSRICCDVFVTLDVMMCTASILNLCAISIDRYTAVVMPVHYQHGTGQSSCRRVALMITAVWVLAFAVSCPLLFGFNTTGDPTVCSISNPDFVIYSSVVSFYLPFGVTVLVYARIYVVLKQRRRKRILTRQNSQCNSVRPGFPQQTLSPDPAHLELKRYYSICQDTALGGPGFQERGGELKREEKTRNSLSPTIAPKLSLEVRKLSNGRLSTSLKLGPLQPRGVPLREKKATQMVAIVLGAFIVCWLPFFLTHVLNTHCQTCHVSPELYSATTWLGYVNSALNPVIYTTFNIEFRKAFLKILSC
metric: Ki (nM)

structure_as_smiles	Ki [nM]
COc1ccccc1N1CCN(CCCc2cn(-c3ccc(N(C)C)cc3)nn2)CC1	29.6

P = COc1ccccc1N1CCN(CCCCCc2cn(-c3cccc4cnccc34)nn2)CC1
Q = COc1ccccc1N1CCN(CCCCCc2cn(-c3ccccc3OC)nn2)CC1
Higher Ki between P and Q ? API: response body contains the label of the selected item. Q
(Q: 21.1 nM, P: 1.8 nM)
